molecular target: GSK3α (Homo sapiens); test: In vitro kinase specificity profiling for GSK3α; type: biochemical; conditions: as worded in response to reviewers
Sequence (P49840 whole entry): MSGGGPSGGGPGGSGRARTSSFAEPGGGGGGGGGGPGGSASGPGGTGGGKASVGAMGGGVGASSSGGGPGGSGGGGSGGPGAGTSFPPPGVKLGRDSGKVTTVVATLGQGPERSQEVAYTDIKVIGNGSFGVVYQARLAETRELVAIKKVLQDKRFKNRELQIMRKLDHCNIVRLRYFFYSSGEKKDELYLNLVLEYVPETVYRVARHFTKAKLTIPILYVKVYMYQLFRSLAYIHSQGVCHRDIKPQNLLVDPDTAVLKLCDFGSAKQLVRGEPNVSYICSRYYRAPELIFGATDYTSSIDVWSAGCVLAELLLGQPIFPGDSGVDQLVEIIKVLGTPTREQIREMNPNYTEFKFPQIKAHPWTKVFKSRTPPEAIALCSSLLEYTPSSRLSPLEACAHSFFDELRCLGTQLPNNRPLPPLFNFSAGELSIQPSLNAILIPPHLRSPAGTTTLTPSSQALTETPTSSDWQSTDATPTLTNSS
pIC50: −log10 of the molar value.
PROPERTY_MEASURED: pIC50

Which measured pIC50 belongs to C=CC(=O)Nc1cccc(Nc2nc(Nc3ccc(N4CCN(C)CC4)nc3OC)ncc2C(F)(F)F)c1 [ES-072] , tested on GSK3α (Homo sapiens)? < 4.40

====

target: KDR(VEGFR2) (Homo sapiens, UniProt P35968)
Sequence (P35968 20-1356, species assumed): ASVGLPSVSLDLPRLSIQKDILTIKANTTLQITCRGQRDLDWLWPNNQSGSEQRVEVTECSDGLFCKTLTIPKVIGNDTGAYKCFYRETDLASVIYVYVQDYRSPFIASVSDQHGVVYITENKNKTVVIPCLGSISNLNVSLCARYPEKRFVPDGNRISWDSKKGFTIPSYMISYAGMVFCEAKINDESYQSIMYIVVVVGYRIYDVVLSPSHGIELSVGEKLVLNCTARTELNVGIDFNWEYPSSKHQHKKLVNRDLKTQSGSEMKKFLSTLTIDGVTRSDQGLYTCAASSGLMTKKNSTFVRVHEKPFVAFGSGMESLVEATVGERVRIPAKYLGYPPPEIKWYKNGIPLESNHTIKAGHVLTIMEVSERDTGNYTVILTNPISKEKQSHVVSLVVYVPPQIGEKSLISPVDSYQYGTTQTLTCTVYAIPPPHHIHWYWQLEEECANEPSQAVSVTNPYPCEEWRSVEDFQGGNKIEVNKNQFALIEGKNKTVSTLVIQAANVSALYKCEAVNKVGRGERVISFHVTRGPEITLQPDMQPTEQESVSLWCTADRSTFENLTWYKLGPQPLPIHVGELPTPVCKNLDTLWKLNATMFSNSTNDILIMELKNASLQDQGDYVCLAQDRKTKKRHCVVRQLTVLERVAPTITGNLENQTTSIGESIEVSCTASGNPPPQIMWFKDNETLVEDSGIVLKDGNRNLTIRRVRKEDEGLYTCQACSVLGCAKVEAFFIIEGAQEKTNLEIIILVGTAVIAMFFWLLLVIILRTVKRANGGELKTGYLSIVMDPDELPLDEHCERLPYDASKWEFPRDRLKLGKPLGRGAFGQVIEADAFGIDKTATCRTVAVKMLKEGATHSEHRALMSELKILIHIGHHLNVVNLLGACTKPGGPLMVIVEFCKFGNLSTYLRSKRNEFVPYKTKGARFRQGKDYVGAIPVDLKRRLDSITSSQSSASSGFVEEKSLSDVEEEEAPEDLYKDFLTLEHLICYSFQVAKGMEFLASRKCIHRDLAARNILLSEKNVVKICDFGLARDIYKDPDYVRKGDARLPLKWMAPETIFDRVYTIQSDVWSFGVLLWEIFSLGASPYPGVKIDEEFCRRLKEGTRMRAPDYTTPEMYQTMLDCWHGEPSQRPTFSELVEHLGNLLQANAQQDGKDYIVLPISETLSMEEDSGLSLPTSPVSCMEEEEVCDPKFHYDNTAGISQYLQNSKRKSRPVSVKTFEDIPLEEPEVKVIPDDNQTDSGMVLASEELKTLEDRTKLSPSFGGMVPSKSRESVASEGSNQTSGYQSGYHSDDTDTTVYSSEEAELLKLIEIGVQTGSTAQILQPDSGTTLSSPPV
PROPERTY_MEASURED: IC50
Field note: include the unit after the figure.

What does the record list as IC50 for C=CC(=O)Nc1cccc(Nc2nc(Nc3ccc(N4CCN(C)CC4)nc3OC)ncc2C(F)(F)F)c1 [ES-072] ? 5.23 µM
